Attribute: % I (0.5 μM)
targetSystem: canine TRPM8 (Canis lupus familiaris, UniProt Q1A7N1)
Construct: expressed in transfected cells
Sequence (Q1A7N1 1-1104): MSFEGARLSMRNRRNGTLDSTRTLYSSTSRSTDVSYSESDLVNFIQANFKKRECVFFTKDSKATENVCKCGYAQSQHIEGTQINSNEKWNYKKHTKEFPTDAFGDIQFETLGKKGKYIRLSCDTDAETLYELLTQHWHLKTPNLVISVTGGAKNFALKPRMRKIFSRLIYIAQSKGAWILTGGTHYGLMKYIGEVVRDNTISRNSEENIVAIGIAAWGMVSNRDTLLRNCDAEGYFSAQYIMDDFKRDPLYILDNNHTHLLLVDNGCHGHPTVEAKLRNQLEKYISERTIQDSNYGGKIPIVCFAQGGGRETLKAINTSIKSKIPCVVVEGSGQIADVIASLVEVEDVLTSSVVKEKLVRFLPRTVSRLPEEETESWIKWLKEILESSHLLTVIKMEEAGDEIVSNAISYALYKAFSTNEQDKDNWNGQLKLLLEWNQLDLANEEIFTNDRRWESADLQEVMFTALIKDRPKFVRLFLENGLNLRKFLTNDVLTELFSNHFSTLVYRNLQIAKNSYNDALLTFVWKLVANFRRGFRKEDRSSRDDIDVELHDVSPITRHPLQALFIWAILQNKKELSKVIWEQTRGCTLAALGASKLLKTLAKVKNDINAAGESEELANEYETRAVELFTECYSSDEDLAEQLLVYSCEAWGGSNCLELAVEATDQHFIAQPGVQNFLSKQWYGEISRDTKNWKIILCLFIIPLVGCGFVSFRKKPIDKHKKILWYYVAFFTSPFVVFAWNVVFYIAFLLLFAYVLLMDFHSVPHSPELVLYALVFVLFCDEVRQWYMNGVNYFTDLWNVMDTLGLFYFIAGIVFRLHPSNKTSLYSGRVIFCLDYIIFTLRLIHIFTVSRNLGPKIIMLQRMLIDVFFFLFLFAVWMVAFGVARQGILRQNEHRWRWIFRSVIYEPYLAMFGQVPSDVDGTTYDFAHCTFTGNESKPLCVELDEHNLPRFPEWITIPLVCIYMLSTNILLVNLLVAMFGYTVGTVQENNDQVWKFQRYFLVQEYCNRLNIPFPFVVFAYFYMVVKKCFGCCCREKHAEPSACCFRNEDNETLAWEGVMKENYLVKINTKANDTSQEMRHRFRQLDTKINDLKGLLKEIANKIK
assayOverview: In vitro canine TRPM8 functional assay (Ca2+-sensitive dye, FLIPR/FDSS, icilin activation)
Format: cell-based
recordedConditions: 0.5 μM compound; HEK293 cells expressing canine TRPM8, icilin activation
Hi! Could you send only the number? It should be in %, unit omitted.

For CCOP(=O)(OCC)C(Cc1cccc(OC)c1F)c1sc2ccccc2c1Br (racemic) the compound record lists % I (0.5 μM) as 103

For CC(C)OP(=O)(OC(C)C)C(Cc1cc(Cl)ccc1F)c1sc2ccccc2c1Cl (racemic) the compound record lists % I (0.5 μM) as 102

For CCOP(=O)(OCC)C(Cc1cccc(Br)c1)c1sc2ccccc2c1Cl (centres unmarked) the compound record lists % I (0.5 μM) as 103

For COCCOCCOP(=O)(OCCOCCOC)C(Cc1ccc(F)c(F)c1)c1sc2ccccc2c1Br (racemic) the compound record lists % I (0.5 μM) as 62

For CCOP(=O)(OCC)C(Cc1cc(C(F)(F)F)ccc1Cl)c1sc2ccccc2c1Cl (centres unmarked) the compound record lists % I (0.5 μM) as 95

---

targetSystem: canine TRPM8 (Canis lupus familiaris)
Construct: expressed in transfected cells
assayOverview: In vitro canine TRPM8 functional assay (Ca2+-sensitive dye, FLIPR/FDSS, icilin activation)
Format: cell-based
recordedConditions: HEK293 cells expressing canine TRPM8, icilin activation; eight-point dose-response; read-out: IC50
Description: The functional activity of compounds of Formula (I) was determined by measuring changes in intracellular calcium concentration using a Ca^2+-sensitive fluorescent dye. The changes in fluorescent signal were monitored by a fluorescence plate reader, either a FLIPR™ (Molecular Devices) or FDSS (Hamamatsu). […] Basal FI was subtracted prior to normalizing data to percent of maximal response. […] Finally, the EC50 and IC50 values were calculated with the best-fit dose curve determined by GraphPad Prism.
quantityKind: log10(IC50) (log10 of the value in nM)
Lab note - IC50 converted to log10 from values in nM.

[[record]]
compound = "CCOP(=O)(OCC)C(Cc1ccccc1Cl)c1sc2ccccc2c1C (stereo not drawn)"
readoutvalue = 2.23

[[record]]
compound = "CC(C)OP(=O)(OC(C)C)C(Cc1ccc(F)c(F)c1)c1sc2ccccc2c1C(F)(F)F (stereo not drawn)"
readoutvalue = 2.20

[[record]]
compound = "CCOP(=O)(OCC)C(Cc1ccc(OC(F)(F)F)c(Cl)c1)c1sc2ccccc2c1Br (racemic)"
readoutvalue = 1.78

[[record]]
compound = "CC(C)OP(=O)(OC(C)C)C(Cc1cccc(Cl)c1)c1sc2ccccc2c1Cl (stereo not drawn)"
readoutvalue = 1.88

[[record]]
compound = "CC(=O)OCCOP(=O)(OCCOC(C)=O)C(Cc1ccc(F)c(F)c1)c1sc2ccccc2c1Br (racemic)"
readoutvalue = 2.31

[[record]]
compound = "CCOP(=O)(OCC)C(Cc1cc(F)cc(C(F)(F)F)c1)c1sc2ccccc2c1C (stereo not drawn)"
readoutvalue = 2.38

[[record]]
compound = "CC(C)OP(=O)(OC(C)C)C(Cc1ccc(S(=O)(=O)C(F)(F)F)cc1)c1sc2ccccc2c1Br (stereo not drawn)"
readoutvalue = 1.34

[[record]]
compound = "CC(C)OP(=O)(OC(C)C)[C@@H](Cc1ccc(F)c(F)c1)c1sc2ccccc2c1Br"
readoutvalue = 1.46


Log: canine TRPM8 (Canis lupus familiaris), compound CC(C)OP(=O)(OC(C)C)C(Cc1ccc(F)cc1C(F)(F)F)c1sc2ccccc2c1Br (stereo not drawn) , log10(IC50) = 1.73
